molecular target: cellular PARG (Homo sapiens); construct: endogenous in cells; assay: Nuclear PAR accumulation assay (immunofluorescence high-content imaging, MMS-treated HeLa cells); details: 1 hour compound then MMS 50 μg/mL for an additional hour
Sequence (Q86W56 whole entry): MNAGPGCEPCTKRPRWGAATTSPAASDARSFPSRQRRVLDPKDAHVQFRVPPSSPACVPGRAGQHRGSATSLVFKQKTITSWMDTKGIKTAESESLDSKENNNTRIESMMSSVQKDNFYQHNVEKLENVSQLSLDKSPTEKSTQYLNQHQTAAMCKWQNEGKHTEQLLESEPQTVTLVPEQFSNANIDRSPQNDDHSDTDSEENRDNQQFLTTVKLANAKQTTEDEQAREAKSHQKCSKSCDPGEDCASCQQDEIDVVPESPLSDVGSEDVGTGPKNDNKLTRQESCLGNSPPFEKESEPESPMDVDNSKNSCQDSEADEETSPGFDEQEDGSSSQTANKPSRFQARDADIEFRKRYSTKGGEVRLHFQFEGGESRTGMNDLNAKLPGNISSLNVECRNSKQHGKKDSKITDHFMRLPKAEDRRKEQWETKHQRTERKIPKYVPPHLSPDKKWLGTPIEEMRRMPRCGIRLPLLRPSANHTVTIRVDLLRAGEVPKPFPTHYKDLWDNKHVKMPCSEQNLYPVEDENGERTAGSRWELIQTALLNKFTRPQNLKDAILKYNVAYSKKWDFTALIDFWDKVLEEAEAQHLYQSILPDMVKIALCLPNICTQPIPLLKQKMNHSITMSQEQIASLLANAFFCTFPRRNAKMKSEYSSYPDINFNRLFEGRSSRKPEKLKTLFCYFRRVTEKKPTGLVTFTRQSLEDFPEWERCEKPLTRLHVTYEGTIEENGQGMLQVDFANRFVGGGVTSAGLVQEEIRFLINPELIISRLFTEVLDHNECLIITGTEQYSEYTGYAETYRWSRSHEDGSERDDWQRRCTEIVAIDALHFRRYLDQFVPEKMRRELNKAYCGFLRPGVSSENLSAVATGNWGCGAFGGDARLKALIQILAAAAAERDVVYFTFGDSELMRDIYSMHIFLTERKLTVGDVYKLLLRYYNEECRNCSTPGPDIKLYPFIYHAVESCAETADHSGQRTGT
Measured endpoint: IC50

>>> print(df.to_string())
                      smiles_representation     measured
0  [2H]C([2H])(c1cnn(C)c1)N1C(=O)c2cc(S(=O)(=O)NC3(C)CC3)ccc2N2C1=NC[C@H]2C#Cc1cncnc1OC     < 0.1 µM
1  C[C@@H]1CN=C2N(Cc3cnn(C)c3)C(=O)c3cc(S(=O)(=O)NC4(C)CC4)cc(N4CCNCC4)c3N21  0.1 to 1 µM
2  Cn1cc(CN2C(=O)c3cc(S(=O)(=O)NC4(C)CC4)ccc3N3C[C@H](c4ccccc4)N=C23)cn1     < 0.1 µM
3  Cn1cc(CN2C(=O)c3cc(S(=O)(=O)NC4(C)CC4)ccc3N3C2=NC[C@H]3C#Cc2nccn2C)cn1     < 0.1 µM
4  C=Cc1ccc(CN2C(=O)c3cc(S(=O)(=O)NC4(C)CC4)ccc3N3C2=NC[C@H]3C)cn1  0.1 to 1 µM
5  CN(C)C1(C#C[C@@H]2CN=C3N(CC4(F)CC4)C(=O)c4cc(S(=O)(=O)NC5(C)CC5)ccc4N32)CC1     < 0.1 µM
6  Cn1cc(CN2C(=O)c3cc(S(=O)(=O)NC4(C)CC4)ccc3N3C2=NC[C@H]3C#Cc2ccnn2C)cn1     < 0.1 µM

Data provenance: patent US20260285875A1
